Items are presented alongside their recorded glycan array binding signal (z-score).
Biological target: Gal(a1-3)[Gal(a1-4)]Gal(b1-4)GlcNAc
Test: glycan array binding signal (z-score within array); higher = stronger binding
Conditions: glycan notation: IUPAC condensed, linker removed
Shown is part of a subset that was picked to be rich in the strongest signals.
Kindly provide the number alone.

>>> measured_value("EULS2 M4 (Oryza sativa) (protein) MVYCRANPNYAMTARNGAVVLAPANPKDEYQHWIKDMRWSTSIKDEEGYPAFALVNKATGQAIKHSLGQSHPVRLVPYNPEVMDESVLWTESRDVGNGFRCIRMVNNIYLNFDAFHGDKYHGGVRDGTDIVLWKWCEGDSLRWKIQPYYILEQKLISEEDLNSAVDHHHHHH")
7

Query: // lookup glycan array binding signal (z-score) for FGFR2-Fc (protein) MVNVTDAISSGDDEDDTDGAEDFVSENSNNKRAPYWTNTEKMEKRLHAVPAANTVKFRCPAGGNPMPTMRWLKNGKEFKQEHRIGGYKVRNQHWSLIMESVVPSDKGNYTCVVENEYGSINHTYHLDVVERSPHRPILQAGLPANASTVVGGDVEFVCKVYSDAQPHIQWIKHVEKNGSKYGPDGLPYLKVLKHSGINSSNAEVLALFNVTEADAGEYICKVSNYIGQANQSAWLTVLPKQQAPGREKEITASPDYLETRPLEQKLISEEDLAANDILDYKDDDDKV
Response: 0.989

Query: // lookup glycan array binding signal (z-score) for GS13455A-bfa-343-25-343 (Bacteroides fragilis) (protein) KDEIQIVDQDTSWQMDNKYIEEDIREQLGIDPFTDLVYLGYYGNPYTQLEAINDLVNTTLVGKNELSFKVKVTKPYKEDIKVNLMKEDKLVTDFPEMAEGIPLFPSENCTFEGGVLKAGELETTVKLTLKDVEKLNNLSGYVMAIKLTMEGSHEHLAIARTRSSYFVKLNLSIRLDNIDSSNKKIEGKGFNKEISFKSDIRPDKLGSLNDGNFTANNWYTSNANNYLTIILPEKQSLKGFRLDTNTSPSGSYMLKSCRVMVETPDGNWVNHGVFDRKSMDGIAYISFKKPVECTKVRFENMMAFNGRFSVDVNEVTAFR
Response: 1.91
